Kindly state pKd for each of the entries shown.
- MEASURED_TARGET: sialidase-1 (Homo sapiens)
Kindly note that pKd refers to -log10 of the concentration in mol/L and answer with the value alone.

Query string: Quick check: pKd of COc1cnc(NS(=O)(=O)c2ccc(N)cc2)nc1 ?
Result string: 5.67

Query string: Can you handle COc1ccc(C(=O)c2ccc(C)cc2)c(O)c1 next?
Result string: 5.05
